Values from ChEMBL document CHEMBL3862024

protocol.notes: Cytotoxicity against aromatase overexpressing HEK293A cells assessed as effect on cell proliferation at 10 to 50 uM
Type: toxicity, cell-based
condition.notes: human, hek293-a
assay.readout: Activity

Answered cases to consult:
- compound: "COc1cc(Cl)cc2cc(-c3ccccc3)oc12"
  Activity: "Non-Toxic"
- compound: "COc1cc(SC)cc2cc(-c3ccc(F)cc3)oc12"
  Activity: "Non-Toxic"
- compound: "COc1cc(CCCCl)cc2cc(-c3ccc4c(c3)OCO4)oc12"
  Activity: "Non-Toxic"
- compound: "COc1cccc2cc(-c3ccccc3)oc12"
  Activity: "Non-Toxic"
- compound: "COc1ccc(-c2cc3cc(Br)cc(OC)c3o2)cc1"
  Activity: "Non-Toxic"

(Q) Request the reported Activity associated with `COc1cc(CCCOC(C)=O)c(C=O)c2cc(-c3ccc4c(c3)OCO4)oc12`
(A) Non-Toxic

(Q) Any idea what its Activity is? The compound is `COc1cccc2cc(-c3ccc([N+](=O)[O-])cc3)oc12`
(A) Non-Toxic

(Q) May I ask what Activity has been recorded for `COc1cc(Cl)cc2cc(-c3ccc(Cl)cc3)oc12` ?
(A) Non-Toxic

(Q) Bench note: what Activity did COc1cc(CCCOC(C)=O)cc2cc(-c3ccc4c(c3)OCO4)oc12 [EGONOL ACETATE] show?
(A) Non-Toxic

(Q) Query: Activity; subject: `COc1c(Br)c(CCCO)c(Br)c2c(Br)c(-c3ccc4c(c3)OCO4)oc12`
(A) Non-Toxic

(Q) I have this compound here, CCCC(=O)OCCCc1cc(OC)c2oc(-c3ccc4c(c3)OCO4)cc2c1 [EGONOLBUTANOATE] , and I need its recorded Activity.
(A) Non-Toxic
